- assay.summary: Single dose pharmacokinetics, oral bioavailability
- Assay type: in vivo, Sprague-Dawley rats
- condition.context: rat, in vivo, po, 1 mg/kg
Exercise: state measured bioavailability for each of the compounds provided.
Answers are plain numbers, in %.

See these solved cases before continuing.
Cc1c(-c2ccc(N3CCc4cccc(C(=O)Nc5cn6ccccc6n5)c4C3)nc2C(=O)O)cnn1CC12CC3CC(CC(C3)C1)C2 [Example 49]    15
COCCC1(Cn2ncc(-c3ccc(N4CCc5cccc(C(=O)Nc6nc7ccccc7s6)c5C4)nc3C(=O)O)c2C)CCCCCCC1 [Example 46]    58
Cc1c(-c2ccc(N3CCc4cccc(C(=O)Nc5nc6ccccc6s5)c4C3)nc2C(=O)O)cnn1CC12CC3CC(CC(C3)O1)C2 [Example 59]    31
O=C(Nc1nc2ccccc2s1)c1cccc2c1CN(c1ccc(-c3cnn(CC45CC6CC(CC(C6)C4)C5)c3Cl)c(C(=O)O)n1)CC2 [Example 42]    15

Turning now to a further record.
Report bioavailability for Cc1c(-c2ccc(N3CCc4cccc(C(=O)Nc5nc6ccccc6s5)c4C3C)nc2C(=O)O)cnn1CC12CC3CC(CC(C3)C1)C2 (centres unmarked) [Example 43] 20
